A collection of compounds and their measured IC50
- target.entity: MAO-B (Homo sapiens, UniProt P27338)
- Sequence (P27338 1-520): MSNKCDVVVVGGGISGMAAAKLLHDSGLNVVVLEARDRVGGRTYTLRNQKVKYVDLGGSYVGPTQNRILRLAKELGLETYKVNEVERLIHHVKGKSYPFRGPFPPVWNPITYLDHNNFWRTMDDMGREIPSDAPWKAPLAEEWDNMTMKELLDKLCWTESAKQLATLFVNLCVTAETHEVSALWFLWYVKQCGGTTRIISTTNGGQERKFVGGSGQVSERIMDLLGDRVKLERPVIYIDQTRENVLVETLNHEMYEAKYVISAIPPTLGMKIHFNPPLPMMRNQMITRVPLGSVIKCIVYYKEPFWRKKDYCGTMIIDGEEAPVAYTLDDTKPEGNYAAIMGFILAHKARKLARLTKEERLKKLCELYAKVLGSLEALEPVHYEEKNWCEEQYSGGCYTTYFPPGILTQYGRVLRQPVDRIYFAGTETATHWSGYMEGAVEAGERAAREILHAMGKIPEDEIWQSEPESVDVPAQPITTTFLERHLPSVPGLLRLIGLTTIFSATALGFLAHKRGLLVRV
- assay.notes: MAO-B inhibition (recombinant enzyme, benzylamine substrate)
- Format: biochemical
- experimental.context: reference compounds after preincubation with enzymes for 30 min
Expressed in µM, but write only the number.

[
  {
    "structure.as.smiles": "COc1ccc(C(=O)/C=C/c2ccc(F)cc2)c(OC)c1OC",
    "units.text": "µM",
    "IC50": 4.17
  }
]

In: // query IC50 value for entry COc1ccc(C(=O)/C=C/c2ccc(Br)cc2)c(OC)c1OC
Out: 0.46

In: Proceed to COc1ccc(C(=O)/C=C/c2ccc(Cl)cc2)c(OC)c1OC
Out: 0.84
